Numbers sourced from patent US9474279B2.

# Tested on: Nilaparvata lugens (Brown Plant Hopper)
# test_protocol: Nilaparvata lugens (Brown Plant Hopper) rice seedling spray test, mortality
# Type: in vivo
# settings: rate 12.5 ppm; N3 nymphs; mortality 6-12 days after treatment
Parameter: Control/%. Scope: all listed entries.
parameter: Control/% (%)

>>> print(df.to_string())
                                   compound  parameter  value_reported
0  CCN1OCC(NC(=O)c2ccc(C3=NOC(c4cc(Cl)cc(Cl)c4)(C(F)(F)F)C3)cc2C)C1=O (mixture of isomers) [Compound A4]  Control/%              88
1  CCN1OCC(NC(=O)c2ccc(C3=NCC(c4cc(Cl)cc(Cl)c4)(C(F)(F)F)C3)cc2C)C1=O (stereo not drawn) [Compound B2]  Control/%              15
2  CCN1OC[C@@H](NC(=O)c2ccc(C3=NO[C@@](c4cc(Cl)cc(C(F)(F)F)c4)(C(F)(F)F)C3)c3ccccc23)C1=O [Compound A26]  Control/%              83

----------
# Tested on: Nilaparvata lugens (Brown Plant Hopper)
# test_protocol: Nilaparvata lugens (Brown Plant Hopper) rice seedling spray test, mortality
# Format: in vivo
# settings: rate 12.5 ppm; N3 nymphs; mortality 6-12 days after treatment
parameter: Control/% (%)

>>> print(df.to_string())
                                   compound                             study_system  value_reported
0  CCN1OC[C@@H](NC(=O)c2ccc(C3=NO[C@@](c4cc(Cl)c(F)c(Cl)c4)(C(F)(F)F)C3)cc2Cl)C1=O [Compound A25]  Nilaparvata lugens (Brown Plant Hopper)             100
1  CCN1OC[C@@H](NC(=O)c2ccc(C3=NO[C@@](c4cc(Cl)c(Cl)c(Cl)c4)(C(F)(F)F)C3)cc2C(F)(F)F)C1=O [Compound A29]  Nilaparvata lugens (Brown Plant Hopper)              55
2  CCN1OCC(NC(=O)c2ccc(C3=NOC(c4cc(Cl)c(F)c(Cl)c4)(C(F)(F)F)C3)cc2C)C1=O (mixture of isomers) [Compound A8]  Nilaparvata lugens (Brown Plant Hopper)             100
3  CCN1OC[C@@H](NC(=O)c2ccc(C3=NO[C@@](c4cccc(C(F)(F)F)c4)(C(F)(F)F)C3)cc2C)C1=O [Compound A30]  Nilaparvata lugens (Brown Plant Hopper)              93
4  CCN1OC[C@@H](NC(=O)c2ccc(C3=NO[C@@](c4cc(Cl)cc(Br)c4)(C(F)(F)F)C3)cc2C)C1=O [Compound A16]  Nilaparvata lugens (Brown Plant Hopper)              95
5  Cc1cc(C2=NOC(c3cc(Cl)cc(Cl)c3)(C(F)(F)F)C2)ccc1C(=O)NC1CON(C)C1=O (mixture of isomers) [Compound A5]  Nilaparvata lugens (Brown Plant Hopper)               0

----------
Parameter: Control/%. Scope: all listed entries.
# System: Nilaparvata lugens (Brown Plant Hopper)
# test_protocol: Nilaparvata lugens (Brown Plant Hopper) rice seedling spray test, mortality
# Type: in vivo
# settings: rate 25 ppm; N3 nymphs; mortality 6-12 days after treatment
parameter: Control/% (%)

In [3]: df
Out[3]:
                                   compound  parameter  units_symbol  value_reported
0  CCN1OCC(NC(=O)c2ccc(C3=NOC(c4cc(C(F)(F)F)c(Cl)c(C(F)(F)F)c4)(C(F)(F)F)C3)cc2C)C1=O (mixture of isomers) [Compound A10]  Control/%             %             100
1  Cc1cc(C2=NO[C@@](c3cc(Cl)cc(Cl)c3)(C(F)(F)F)C2)ccc1C(=O)N[C@@H]1CON(CC(F)F)C1=O [Compound A12]  Control/%             %             100
2  CCN1OCC(NC(=O)c2ccc(C3=NOC(c4cc(Cl)cc(Cl)c4)(C(F)(F)F)C3)cc2C)C1=O (mixture of isomers) [Compound A4]  Control/%             %              93
3  CCN1OC[C@@H](NC(=O)c2ccc(C3=NO[C@@](c4cc(Cl)cc(Br)c4)(C(F)(F)F)C3)cc2C)C1=O [Compound A16]  Control/%             %              97
4  CCN1OC[C@@H](NC(=O)c2ccc(C3=NO[C@@](c4cc(Cl)c(Cl)c(Cl)c4)(C(F)(F)F)C3)cc2C)C1=O [Compound A35]  Control/%             %             100
5  CCN1OC[C@@H](NC(=O)c2ccc(C3=NO[C@@](c4cc(Cl)c(Cl)c(Cl)c4)(C(F)(F)F)C3)cc2C(F)(F)F)C1=O [Compound A29]  Control/%             %              88
